test system: EKVX NSCLC; assay: NCI-60 one-dose screen, 48 h; details: 10 µM unless noted
Compounds without any hit were thinned out: in the full panel of roughly 83,000, 20% have a hit. Activity calls are given as the source filed them. The calls were made as follows: active = growth percent below 10; inactive = the rest.
Respond using exactly one of the listed classes: Y for active, N for inactive

Please review the entries below; each comes with its answer.
Exercise: Kindly provide the recorded test outcome for the following compound: `Oc1c(I)cc(I)cc1CN(Cc1ccccn1)Cc1ccccn1`
Solution: N

Exercise: What did the test return for `Cc1c(C(C)(C)O)cn2ncnc(Oc3ccc(NC(=O)Nc4ccc(Cl)c(C(F)(F)F)c4)c(F)c3)c12` ?
Solution: N

Exercise: For `Cc1nn(C)c2ncnc(N/N=C/c3cccc(O)c3O)c12` , which call appears in the assay record?
Solution: Y

Continuing:
Exercise: Per the assay record, what outcome was assigned to `CCOC(=O)c1c(C)nc2ccccc2c1/C=C/c1ccc(F)cc1` ?
Solution: N

Exercise: Outcome? `C/C=C1/CN(CCCCC)CC[C@H]1C(=O)c1cc2ccccc2[nH]1`
Solution: N

Exercise: In this assay, the call recorded for `CC(=O)c1sc(-c2ccc(F)cc2)cc1O` was what?
Solution: N
